Target: HCMV polymerase (Human cytomegalovirus)
Construct: made in house; host or cells: recombinant baculovirus-infected SF-9 insect cells
Experiment: biochemical
Details: HCMV polymerase; SPA; modified assay: compounds in 100% DMSO, 4.5 mM DTT
Returns: string. Value is YES if measured IC50 is below 3000 nM, and NO if it is greater than or equal to it.

Report whether reported IC50 is lower than 3000 nM (strictly) for O=C(NCc1ccc(Cl)cc1)c1cn(C[S+]([O-])c2ccccc2)c2ccc(CN3CCOCC3)cc2c1=O (stereo not shown)
YES

Dear reviewer, please state whether `CN(CCS(=O)(=O)O)C(=O)CCCCCCC(=O)OCC#Cc1ccc2c(c1)c(=O)c(C(=O)NCc1ccc(Cl)cc1)cn2C` has IC50 strictly beneath 3000 nM.
NO

Consider `O=C(NCc1ccc(Cl)cc1)c1cn(CCCS(=O)(=O)CCCO)c2ccc(CN3CCOCC3)cc2c1=O` . Does its IC50 lie strictly below 3000 nM?
YES

Does the reported IC50 of `CN(C)n1cc(C(=O)NCc2ccc(Cl)cc2)c(=O)c2cc(C#CCO)ccc21` stay below 3000 nM?
YES

Find out if reported IC50 for `O=C(NCc1ccc(Cl)cc1)c1cn(C2CC2)c2ccc(CN3CCOCC3)cc2c1=O` is less than 3000 nM
YES

Please determine if `Cn1cc(C(=O)NCc2ccc(Cl)cc2)c(=O)c2cc(CC3CCOCC3)ccc21` is below 3000 nM in terms of IC50.
YES

Quick check: does `O=C(NCc1ccc(Cl)cc1)c1cn(CCOCCN2CCOCC2)c2ccc(CN3CCOCC3)cc2c1=O` have IC50 under 3000 nM?
YES

Strictly below 3000 nM: is that where IC50 of `Cn1cc(C(=O)NCc2ccc(Cl)cc2)c(=O)c2cc(CN3C[C@@H]4C[C@H]3CO4)ccc21` sits?
NO

Consider the compound `CC(C)(C)OP(=O)(OCCCc1ccc2c(c1)c(=O)c(C(=O)NCc1ccc(Cl)cc1)cn2C1CC1)OC(C)(C)C` . Is its IC50 strictly less than 3000 nM?
NO

Is 3000 nM strictly greater than the compound's reported IC50? compound: `CCN(CCO)c1ccc2c(c1)c(=O)c(C(=O)NCc1ccc(Cl)cc1)cn2C`
NO

Hello, I'm reviewing records and need to know if IC50 of `Nn1cc(C(=O)NCc2ccc(Cl)cc2)c(=O)c2cc(CCCO)ccc21` is below 3000 nM. Could you check?
YES

Is it true that IC50 reported for COCCOCCn1cc(C(=O)NCc2ccc(Cl)cc2)c(=O)c2cc(CN(C)CC(O)c3ccccc3)ccc21 (stereo not shown) is less than 3000 nM?
NO

In the record for `Cn1cc(C(=O)NCc2ccc(Cl)cc2)c(=O)c2cc(CCCOP(=O)(O)O)ccc21` , is IC50 less than 3000 nM?
NO

# TODO verify IC50 < 3000 nM strictly for this compound: `Cn1cc(C(=O)NCc2ccc(Cl)cc2)c(=O)c2cccc(C#CCO)c21`
YES

Input `Cn1cc(C(=O)NCc2ccc(Cl)cc2)c(=O)c2cc(CN3CCCOCC3)ccc21` ; condition: IC50 strictly below 3000 nM. Does it hold?
NO

Quick check: does `CCS(=O)(=O)CCn1cc(C(=O)NCc2ccc(Cl)cc2)c(=O)c2cc(CN3CCOCC3)ccc21` have IC50 under 3000 nM?
YES

----------
Target: HCMV polymerase (Human cytomegalovirus, UniProt P08546)
Construct: made in house; host or cells: recombinant baculovirus-infected SF-9 insect cells
Sequence (P08546 whole entry): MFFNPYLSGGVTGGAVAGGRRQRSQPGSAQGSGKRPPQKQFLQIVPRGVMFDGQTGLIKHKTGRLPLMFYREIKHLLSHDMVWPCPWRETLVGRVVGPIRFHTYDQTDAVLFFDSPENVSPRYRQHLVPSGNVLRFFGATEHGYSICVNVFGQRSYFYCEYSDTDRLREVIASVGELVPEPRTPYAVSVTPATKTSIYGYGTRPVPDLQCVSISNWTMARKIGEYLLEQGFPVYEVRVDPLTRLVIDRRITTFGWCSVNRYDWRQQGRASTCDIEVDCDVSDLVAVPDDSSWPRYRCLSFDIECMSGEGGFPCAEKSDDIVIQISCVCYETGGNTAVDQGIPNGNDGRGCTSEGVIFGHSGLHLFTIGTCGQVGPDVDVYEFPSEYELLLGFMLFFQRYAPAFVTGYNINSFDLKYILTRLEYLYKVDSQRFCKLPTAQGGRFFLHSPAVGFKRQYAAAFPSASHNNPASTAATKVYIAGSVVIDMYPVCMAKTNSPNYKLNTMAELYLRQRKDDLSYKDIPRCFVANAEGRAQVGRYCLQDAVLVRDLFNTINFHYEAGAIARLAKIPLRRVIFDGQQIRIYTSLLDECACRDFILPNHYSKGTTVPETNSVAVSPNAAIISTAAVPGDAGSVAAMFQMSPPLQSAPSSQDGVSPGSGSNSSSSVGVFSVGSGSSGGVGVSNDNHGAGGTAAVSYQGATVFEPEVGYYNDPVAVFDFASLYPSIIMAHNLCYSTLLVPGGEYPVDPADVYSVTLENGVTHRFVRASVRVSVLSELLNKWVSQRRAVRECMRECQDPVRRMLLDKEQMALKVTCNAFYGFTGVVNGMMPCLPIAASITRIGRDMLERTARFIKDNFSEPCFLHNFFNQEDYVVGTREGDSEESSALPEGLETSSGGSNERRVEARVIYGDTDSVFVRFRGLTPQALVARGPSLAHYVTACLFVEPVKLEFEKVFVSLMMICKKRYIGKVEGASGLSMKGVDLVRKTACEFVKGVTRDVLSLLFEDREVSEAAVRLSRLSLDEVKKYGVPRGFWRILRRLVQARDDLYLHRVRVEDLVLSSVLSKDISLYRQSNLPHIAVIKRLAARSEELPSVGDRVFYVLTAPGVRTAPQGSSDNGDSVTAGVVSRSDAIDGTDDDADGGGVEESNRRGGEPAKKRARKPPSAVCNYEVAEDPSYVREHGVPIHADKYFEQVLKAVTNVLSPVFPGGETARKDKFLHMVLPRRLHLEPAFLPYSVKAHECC
Experiment: biochemical
Please provide measured IC50 for the entries that follow.
Write the value in nM as a bare number.

Consider `O=C(NCc1ccc(Cl)cc1)c1cn(CCN2CCOCC2)c2ccc(C=CCO)cc2c1=O` . Its measured IC50 is 1000

Recorded result, CN1CCCC1CCn1cc(C(=O)NCc2ccc(Cl)cc2)c(=O)c2cc(C#CCO)ccc21 (stereo not drawn) , IC50: 2800

For record `O=C(NCc1ccc(Cl)cc1)c1cn(CCN2CCCC2)c2ccc(C#CCO)cc2c1=O` the listed IC50 is 2700

The molecule listed as `O=C(NCc1ccc(Cl)cc1)c1cn(CCN2CCCCC2)c2ccc(C#CCO)cc2c1=O` has a reported IC50 of 1300

Given item O=C(NCc1ccc(Cl)cc1)c1cn(CCCOC2CCCCO2)c2c(F)cc(CO)cc2c1=O (stereo not drawn) , the value recorded as its IC50 is 7200

Recorded result, `O=C(NCc1ccc(Cl)cc1)c1cn(CCN2CCOCC2)c2ccc(C#CCO)cc2c1=O` , IC50: 1800

----------
Molecular target: HCMV polymerase (Human cytomegalovirus)
Construct: made in house; host or cells: recombinant baculovirus-infected SF-9 insect cells
Test: biochemical
Details: HCMV polymerase; SPA; modified assay: compounds in 100% DMSO, 4.5 mM DTT
Where a name gives a salt, the structure may show the parent alone.
Exercise: state measured pIC50 for each of the molecules provided.
Value format note: pIC50 is -log10 of concentration (mol/L); just state the number.

What the record says about CN(C)CCn1cc(C(=O)NCc2ccc(Cl)cc2)c(=O)c2cc(C#CCO)ccc21 [Example 13, hydrochloride salt] : pIC50 is 5.54

Lookup result for `O=C(NCc1ccc(Cl)cc1)c1cn(CS(=O)(=O)c2ccccc2)c2ccc(CN3CCOCC3)cc2c1=O` ; measured pIC50: 6.28

Value of measured pIC50 for the entry `Cn1cc(C(=O)NCc2ccc(Cl)cc2)c(=O)c2cc(CN3CC(O)C3)ccc21` : 5.48

Value of measured pIC50 for the entry `CN(C)n1cc(C(=O)NCc2ccc(Cl)cc2)c(=O)c2cc(CN3CCOCC3)ccc21` : 5.82

Form field pIC50, entry `O=C(NCc1ccc(Cl)cc1)c1cn(COc2ccc(Cl)cc2)c2ccc(CN3CCOCC3)cc2c1=O` : 5.80

Quick note, pIC50 for `COCCOCCOCCn1cc(C(=O)NCc2ccc(Cl)cc2)c(=O)c2cc(CN3CCOCC3)ccc21` landed at 5.52

`COCCOCCn1cc(C(=O)NCc2ccc(Cl)cc2)c(=O)c2cc(CSC)ccc21` has a reported pIC50 of 5.21

Looking up `Cn1cc(C(=O)NCc2ccc(Cl)cc2)c(=O)c2cc(CN3CCC(F)(F)CC3)ccc21` , I found its pIC50 recorded as 5.02

----------
quantity: IC50 (nM)
Answer with a number only, understood to be in nM.

Known value: VZV polymerase (Varicella-zoster virus) IC50 of the compound O=C(NCc1ccc(Cl)cc1)c1cn(CCOCCO)c2ccc(C#CCO)cc2c1=O [Example 55] equals 1400

Bench note, VZV polymerase (Varicella-zoster virus): entry O=C(NCc1ccc(Cl)cc1)c1cn(C2CC2)c2ccc(C#CCO)cc2c1=O [Example 25] , its IC50 = 1500

Record for O=C(NCc1ccc(Cl)cc1)c1cn(C2CC2)c2ccc(CCCO)cc2c1=O [Example 26] under target or system VZV polymerase (Varicella-zoster virus): IC50 reported as 490

IC50 for VZV polymerase (Varicella-zoster virus) with input Cn1cc(C(=O)NCc2ccc(Cl)cc2)c(=O)c2cc(CCCO)cc(OCCO)c21 [Example 4] equals 1200

Query CSCCCn1cc(C(=O)NCc2ccc(Cl)cc2)c(=O)c2cc(CN3CCOCC3)ccc21 [Example 61] on VZV polymerase (Varicella-zoster virus); IC50 returned: 500

Param item: COc1cc(C(O)CN(C)Cc2ccc3c(c2)c(=O)c(C(=O)NCc2ccc(Cl)cc2)cn3C)ccc1O (stereo not shown) [Example 77] ; param system: VZV polymerase (Varicella-zoster virus); output IC50: 2100

Record CCN(CC)CCn1cc(C(=O)NCc2ccc(Cl)cc2)c(=O)c2cc(C#CCO)ccc21 [Example 12] ; system VZV polymerase (Varicella-zoster virus); IC50 = 1900

The compound O=C(NCc1ccc(Cl)cc1)c1cn(CCN2CCCCC2)c2ccc(C#CCO)cc2c1=O [Example 14] , tested on VZV polymerase (Varicella-zoster virus), showed IC50 of 1100

Reading of IC50 for O=C(NCc1ccc(Cl)cc1)c1cn(CCN2CCOCC2)c2ccc(C=CCO)cc2c1=O [Example 7] with VZV polymerase (Varicella-zoster virus): 770

Tested on VZV polymerase (Varicella-zoster virus): O=C(NCc1ccc(Cl)cc1)c1cn(CC#CCO)c2ccc(CN3CCOCC3)cc2c1=O [Example 62] . Observed IC50: 610

Field IC50 (system: VZV polymerase (Varicella-zoster virus)) for entry CN(Cc1ccc2c(c1)c(=O)c(C(=O)NCc1ccc(Cl)cc1)cn2C)CC(O)c1ccc(O)cc1 (stereo not shown) [Example 74] = 1600

Recorded IC50 for Cn1cc(C(=O)NCc2ccc(Cl)cc2)c(=O)c2cc(C#CCO)ccc21 [Example 31] on VZV polymerase (Varicella-zoster virus) was 1000

// compound C[S+]([O-])CCCn1cc(C(=O)NCc2ccc(Cl)cc2)c(=O)c2cc(CN3CCOCC3)ccc21 (stereo not shown) [Example 65] , assay VZV polymerase (Varicella-zoster virus), IC50 value: 630

Form field IC50 for item Cn1cc(C(=O)NCc2ccc(Cl)cc2)c(=O)c2cc(CN3CC(O)C3)ccc21 [Example 75] on VZV polymerase (Varicella-zoster virus): 4000

Sample CC(C)N(CCn1cc(C(=O)NCc2ccc(Cl)cc2)c(=O)c2cc(C#CCO)ccc21)C(C)C [Example 17] , system: VZV polymerase (Varicella-zoster virus). Its IC50 is 1100
